- methodNotes: Cmax in ICR mouse at 25 mg/kg, po by HPLC analysis
- Assay type: ADME, organism-based
- Design: dose 25 mg/kg, route oral
- experimentalSetup: in vivo
observationType: Cmax (ng/mL)

INSERT INTO measurements (compound, resultvalue) VALUES
  ('CCc1nc2ccc(Cl)cn2c1C(=O)NCc1ccc(N2CCN(CC3CCCCC3)CC2)cc1', 24100),
  ('CCc1nc2ccc(Cl)cn2c1C(=O)NCc1ccc(N2CC3CN(CC4CCCCC4)CC3C2)cc1 (centres undefined)', 4180),
  ('CCc1nc2ccc(Cl)cn2c1C(=O)NCc1ccc(N2CCC3(CC2)CCN(c2ccc(OC(F)(F)F)cc2)CC3)cc1', 7420),
  ('CCc1nc2ccc(Cl)cn2c1C(=O)NCc1ccc(N2CC3CN(Cc4ccc(OC(F)(F)F)cc4)CC3C2)cc1 (centres undefined)', 2670);

###

- methodNotes: Tmax in ICR mouse at 25 mg/kg, po by HPLC analysis
- Assay type: ADME, organism-based
- experimentalSetup: in vivo
observationType: Tmax (min)

INSERT INTO assay_data (compound, resultvalue) VALUES
  ('CCc1nc2ccc(Cl)cn2c1C(=O)NCc1ccc(N2CCN(CC3CCCCC3)CC2)cc1', 15),
  ('CCc1nc2ccc(Cl)cn2c1C(=O)NCc1ccc(N2CC3CN(Cc4ccc(OC(F)(F)F)cc4)CC3C2)cc1 (centres undefined)', 49.8),
  ('CCc1nc2ccc(Cl)cn2c1C(=O)NCc1ccc(N2CC3CN(CC4CCCCC4)CC3C2)cc1 (centres undefined)', 15),
  ('CCc1nc2ccc(Cl)cn2c1C(=O)NCc1ccc(N2CCC3(CC2)CCN(c2ccc(OC(F)(F)F)cc2)CC3)cc1', 160);

###

Reported MIC90 values for the following compounds.
- Tested on: Mycobacterium tuberculosis
- methodNotes: Antitubercular activity against Mycobacterium tuberculosis H37Rv after 7 days by MABA method
- Assay type: functional
- experimentalSetup: 168 h
observationType: MIC90 (µM)

INSERT INTO measurements (compound, observationtype, valuerelationsign, resultvalue) VALUES
  ('CCc1nc2ccc(Cl)cn2c1C(=O)NCc1ccc(N2CC3CN(Cc4ccc(OC(F)(F)F)cc4)CC3C2)cc1 (centres undefined)', 'MIC90', '<', 0.035),
  ('CCc1nc2cc(Cl)ccn2c1C(=O)NCc1ccc(N2CCN(CCC3CCCCC3)CC2)cc1', 'MIC90', '=', 1.59),
  ('CCc1nc2cc(Cl)ccn2c1C(=O)NCc1ccc(N2CCN(CC3CCCCC3)CC2)cc1', 'MIC90', '=', 0.84),
  ('CCc1nc2cc(Cl)ccn2c1C(=O)NCc1ccc(N2CC3CC2CN3CC2CCCCC2)cc1 (centres undefined)', 'MIC90', '=', 1.27);
